Form field: pIC50 (one value per entry).
# System: 317291-083-R-J1-PDC complex spheroids, viability;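 note: spheroids exposed to compounds for one week before readout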
# experimentSummary: Anticancer human tumor 317291-083-R-J1-PDC patient-derived soft tissue sarcoma cell line growth inhibition [GQUAD]
# conditionSet: curve of first compound; second compound 10 µM
Scale: negative log10 of molar concentration, which is what pIC50 denotes.

compound	reading
CC[C@@]1(O)C(=O)OCc2c1cc1n(c2=O)Cc2cc3c(CN(C)C)c(O)ccc3nc2-1 + Cc1[nH]c2ccc(F)cc2c1-c1nc2c3cccnc3c3ncccc3c2[nH]1	7.61

Now, please, on to the next compound.
Q) What value of measured pIC50 is listed for CC1COCCN1c1cc(C2(O)CC3CCC(C2)O3)c2cnn(-c3ccn[nH]3)c2n1 (stereo not given) + Cc1[nH]c2ccc(F)cc2c1-c1nc2c3cccnc3c3ncccc3c2[nH]1 ?
A) 7.47
